Ref: ChEMBL document CHEMBL2069246

Below: a set of entries, each annotated with reported inhibition at 50 µM.
target: CYP2C19 (Homo sapiens); test: Time dependent inhibition of human recombinant CYP2C19 coexpressed in Escherichia coli at 50 uM using mephenytoin as probe; assay type: ADME
Sequence (P33261 whole entry): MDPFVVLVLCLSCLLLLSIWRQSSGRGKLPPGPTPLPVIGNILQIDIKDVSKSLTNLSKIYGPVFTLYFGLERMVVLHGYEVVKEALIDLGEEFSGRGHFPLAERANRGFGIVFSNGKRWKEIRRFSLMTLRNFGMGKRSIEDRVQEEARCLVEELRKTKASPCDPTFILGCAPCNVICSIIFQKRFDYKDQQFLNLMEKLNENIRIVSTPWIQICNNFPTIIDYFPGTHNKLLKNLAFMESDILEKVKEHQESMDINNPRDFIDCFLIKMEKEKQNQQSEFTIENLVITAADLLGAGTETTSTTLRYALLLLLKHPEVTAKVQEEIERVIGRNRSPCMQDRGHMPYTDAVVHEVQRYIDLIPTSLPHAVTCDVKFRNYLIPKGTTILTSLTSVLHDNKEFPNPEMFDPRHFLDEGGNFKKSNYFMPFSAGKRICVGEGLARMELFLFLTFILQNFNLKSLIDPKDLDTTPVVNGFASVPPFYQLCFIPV

The cases that follow already have their inhibition at 50 µM on record.
structure-smiles-string: Clc1cc(-c2nnc(CSc3nnc(-c4ccncc4)n3C3CC3)o2)ccn1
inhibition at 50 µM: < 12%
//
structure-smiles-string: c1ccc(CN2CCN(Cc3nc(-c4ccccc4)no3)CC2)cc1
inhibition at 50 µM: < 12%
//
structure-smiles-string: O=C(NC1CCCCC1)c1nc(CS(=O)(=O)c2ccccc2)no1
inhibition at 50 µM: < 19%

Turning now to a further compound:
O=C(NCc1ccncc1)c1nc(CS(=O)(=O)c2ccccc2)no1 on CYP2C19 (Homo sapiens) gives inhibition at 50 µM = < 12%
